Item-by-item account of pIC50
Tested on: Recombinant human KIF18A (1-467His-tagged) protein (Homo sapiens)
Construct: Recombinant human KIF18A (1-467His-tagged) protein; His
Sequence (Q8NI77 1-467): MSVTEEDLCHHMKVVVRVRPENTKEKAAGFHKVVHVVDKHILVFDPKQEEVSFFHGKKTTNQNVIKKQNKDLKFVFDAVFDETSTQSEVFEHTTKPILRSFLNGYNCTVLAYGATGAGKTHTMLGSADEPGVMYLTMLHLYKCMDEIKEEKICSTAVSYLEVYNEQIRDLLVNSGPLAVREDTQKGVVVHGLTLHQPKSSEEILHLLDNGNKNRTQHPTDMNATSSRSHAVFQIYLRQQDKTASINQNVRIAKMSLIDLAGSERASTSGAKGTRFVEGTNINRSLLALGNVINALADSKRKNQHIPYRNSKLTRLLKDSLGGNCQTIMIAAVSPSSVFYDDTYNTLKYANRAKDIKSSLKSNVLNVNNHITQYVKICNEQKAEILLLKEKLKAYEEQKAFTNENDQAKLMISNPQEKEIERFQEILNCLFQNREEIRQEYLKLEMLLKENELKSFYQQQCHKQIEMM
Sequence (P02550 whole entry partner): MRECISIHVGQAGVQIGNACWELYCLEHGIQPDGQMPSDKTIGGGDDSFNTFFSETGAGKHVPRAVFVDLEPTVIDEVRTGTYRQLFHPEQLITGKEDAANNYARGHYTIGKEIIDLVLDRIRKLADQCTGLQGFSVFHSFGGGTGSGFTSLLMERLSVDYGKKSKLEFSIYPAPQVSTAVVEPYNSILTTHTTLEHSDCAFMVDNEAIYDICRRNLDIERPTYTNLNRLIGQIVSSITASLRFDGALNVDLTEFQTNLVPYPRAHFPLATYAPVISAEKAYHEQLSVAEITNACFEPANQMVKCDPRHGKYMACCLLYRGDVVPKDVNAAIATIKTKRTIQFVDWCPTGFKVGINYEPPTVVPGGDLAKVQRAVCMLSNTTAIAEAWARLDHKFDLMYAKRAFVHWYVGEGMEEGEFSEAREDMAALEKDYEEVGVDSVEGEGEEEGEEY
Sequence (P02554 whole entry partner): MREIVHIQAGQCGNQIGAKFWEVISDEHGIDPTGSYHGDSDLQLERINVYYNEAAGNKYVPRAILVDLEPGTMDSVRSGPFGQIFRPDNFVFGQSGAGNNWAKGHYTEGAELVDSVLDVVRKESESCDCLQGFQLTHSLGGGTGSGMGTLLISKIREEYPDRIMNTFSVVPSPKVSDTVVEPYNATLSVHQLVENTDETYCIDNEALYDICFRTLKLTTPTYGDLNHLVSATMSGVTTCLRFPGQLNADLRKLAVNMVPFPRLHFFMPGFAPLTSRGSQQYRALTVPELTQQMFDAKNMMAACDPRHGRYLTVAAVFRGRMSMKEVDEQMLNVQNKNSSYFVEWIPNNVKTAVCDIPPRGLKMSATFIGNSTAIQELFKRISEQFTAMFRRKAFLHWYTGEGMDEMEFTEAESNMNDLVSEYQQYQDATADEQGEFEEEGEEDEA
Test details: KIF18A enzyme assay (microtubule-stimulated ATPase activity, ADP-Glo)
Condition parameters: 30 nM KIF18A, 75 μM ATP, 30 μg/mL pig microtubules; read-out: Inhibitory activity against KIF18A IC50
pIC50: −log10 of the molar value.

Compound: O=C(Nc1ccc(OCF)c(N2CCC3(CC3)C2)n1)c1ccc(S(=O)(=O)NCCO)cc1N1CCC2(CC1)CC2 [Compound 438]
pIC50: ≥ 7.00

Compound: C[C@@H]1CN(c2cc(C(=O)Nc3ccc(S(=O)(=O)N[C@@H](C)CO)cc3N3CCC4(CC3)CC4)ccc2OCF)CCO1 [Compound 543]
pIC50: 6.30 to 7.00

Compound: O=C(Nc1ccc([N+](=O)[O-])c(N2CCC(F)(F)CC2)c1)c1cnc(NS(=O)(=O)CCO)cc1N1CCC2(CC1)CC2 [Compound 97]
pIC50: ≥ 7.00

Compound: C[C@H](CO)NS(=O)(=O)c1cc(N2CCC3(CC2)CC3)c(C(=O)Nc2ccc([N+](=O)[O-])c(N3CCO[C@H](C)C3)c2)cn1 [Compound 128]
pIC50: ≥ 7.00

Compound: C[C@@H]1CN(c2nc(NC(=O)c3ccc(S(=O)(=O)N[C@@H](C)CO)cc3N3CCC4(CC3)CC4)ccc2OCF)CCO1 [Compound 447]
pIC50: ≥ 7.00

Compound: C[C@@H]1CN(c2nc(NC(=O)c3cnc(S(=O)(=O)N[C@@H](C)CO)cc3N3CCC4(CC3)CC4)ccc2OCF)CCO1 [Compound 511]
pIC50: ≥ 7.00
